assay-notes: Cytotoxicity in HeLa cells (ATP content, ATPlite kit)
Format: cell-based
condition-notes: human, three days incubation, read-out: TOX HELA pCC50 (converted)
readout: CC50 at 3 days

What value of CC50 at 3 days has been reported for the following molecule? c1cnc(-c2ccc(N3CCCCC3)cc2)c(N2CCN(c3ccncc3)CC2)c1 [Compound 60]
22.9 µM

Now the molecule OCCCn1ccc2cc(-c3ncccc3N3CCN(c4ccncc4)CC3)ccc21 [Compound 46]
52.5 µM

Now the molecule c1cnc(-c2ccc3ncsc3c2)c(N2CCN(c3ccncc3)CC2)c1 [Compound 45]
> 100 µM

Now the molecule Fc1cccc(-c2ncccc2N2CCN(c3ccncc3)CC2)c1 [Compound 12]
> 100 µM

Now the molecule CC(C)(O)c1ncccc1N1CCN(c2ccncc2)CC1 [Compound 70]
> 100 µM

Now the molecule Cn1ccc2ccc(-c3ncccc3N3CCN(c4ccncc4)CC3)cc21 [Compound 41]
49 µM

Now the molecule c1cnc(-c2ccc3[nH]ccc3c2)c(N2CCN(c3ccncc3)CC2)c1 [Compound 36]
44.7 µM

Now the molecule COc1ccc(C(O)c2ncccc2N2CCN(c3ccncc3)CC2)cc1 (stereo not drawn) [Compound 71]
> 100 µM

Now the molecule CS(=O)(=O)Nc1ccc(-c2ncccc2N2CCN(c3ccncc3)CC2)cc1 [Compound 42]
> 100 µM
